Reference source for all entries: PubChem BioAssay (NCI)

# Tested on: OVCAR-5 ovarian
# ASSAY COMMENT: NCI-60 one-dose screen, 48 h (100 = growth as untreated, 0 = no growth, -100 = all killed)
# ASSAY CONTEXT: 10 µM unless noted
The panel holds about 83,000 compounds, 20% with a hit somewhere; the sample as a whole holds those more often.
MEASURE: growth (%)
Give bare numbers, in %.

# annotated cases, reported growth shown
>>> recorded_number("COc1ccc(/C=C2/SC(=O)N(CC(=O)N3CCN(c4cc5c(cc4F)c(=O)c(C(=O)O)cn5C4CC4)CC3)C2=O)cc1")
103
>>> recorded_number("COc1ccc(Cn2cc(Cn3cc(C=C4C(=O)NC(=O)NC4=O)c4ccccc43)nn2)cc1")
71.7
>>> recorded_number("COC(=O)c1c2c(c(C)[n+]([O-])c1C)C(=O)C=C(NCc1ccc(F)c(F)c1)C2=O")
-83.1
>>> recorded_number("CN1C(=O)N(C)C2C1NN=c1s/c(=C\\c3c[nH]c4ccccc34)c(=O)n12 (stereo not drawn)")
42.7

Items follow; give growth for each.
1. CCN1C(=O)N(c2ccccc2)C2NN=c3s/c(=C4\C(=O)N(C(C)C)c5ccccc54)c(=O)n3C21 (stereo not drawn)
2. COc1cc2nc(NC3CCC3)nc(NC3CCN(C(C)C)CC3)c2cc1OC
3. CC(C)(C)c1ccc(C2CC(=O)C3=C(C2)Nc2ccccc2N(C(=O)c2ccccc2Cl)C3c2ccc(F)cc2)cc1 (stereo not drawn)

Result:
1: 45.3; 2: 97.2; 3: 38.9

----------
# Tested on: UACC-257 melanoma
# ASSAY COMMENT: NCI-60 one-dose screen, 48 h
# ASSAY CONTEXT: 10 µM unless noted
About 83,000 compounds went through this panel and 20% of them were active in at least one assay; those are over-represented in the sample as a whole. Activity calls are given as the source filed them. How the source made its calls: active means growth percent below 10; inactive means the rest.
Select the correct class. Options are active, inactive and nothing else.

Some entries whose results are on file:
>>> qualitative_label("COC(=O)/C(CCC=C(C)C)=C1\\[C@@H](OC(C)=O)C[C@@]2(C)[C@H]1C[C@@H](O)[C@H]1[C@@]3(C)CC[C@H](NCc4ccccc4)[C@@H](C)[C@@H]3CC[C@@]12C")
"inactive"
>>> qualitative_label("Cc1c(C(=O)OCCO)cc(-c2ccc(Cl)cc2)n1-c1ccc(Cl)cc1Cl")
"inactive"
>>> qualitative_label("Cc1ccc2nc(NC(=O)CSC(=S)N3CCN(c4ccccc4)CC3)sc2c1")
"inactive"
>>> qualitative_label("O=C(c1ccccc1)N(C(=S)NCCc1ccc(Cl)cc1)c1ccc(Cl)cc1")
"inactive"
>>> qualitative_label("COc1ccc(C(=O)Nc2ccc3nc(N4CCCCC4)cc(C)c3c2)cc1OC")
"inactive"

Ask: Name the outcome recorded for `O=C(COc1cc(O)c2c(=O)cc(-c3ccccc3)oc2c1)Nc1ccccc1` in the assay.
Result: inactive

Ask: Another molecule: `O=c1c(-c2nc3ccccc3[nH]2)cc2ccccc2n1Cc1cn(Cc2ccc(F)cc2)nn1`
Result: inactive

Ask: Another molecule: `O=c1c(-c2nc3ccccc3[nH]2)cc2ccccc2n1Cc1cn(Cc2ccc(N3CCOCC3)cc2)nn1`
Result: inactive

Ask: Another molecule: `Cn1c(C(=O)c2cccc3ccccc23)nc2ccccc21`
Result: active

----------
# Tested on: LOX IMVI melanoma
# ASSAY COMMENT: NCI-60 one-dose screen, 48 h
# ASSAY CONTEXT: 10 µM unless noted
About 83,000 compounds went through this panel and 20% of them were active in at least one assay; those are over-represented in the sample as a whole. Activity calls are given as the source filed them. How the source made its calls: active means growth percent below 10; inactive means the rest.
Select the correct class. Options are active, inactive and nothing else.

>>> qualitative_label("COc1ccc(-c2nsc3c2NC(=O)CC3c2ccc3c(c2)OCCO3)cc1 (stereo not given)")
"inactive"
>>> qualitative_label("Cc1ccc2[nH]c(=O)cc(-n3nncc3Cn3c4ccccc4c4ccccc43)c2c1")
"inactive"

Ask: Name the outcome recorded for `C[C@@H](C(=O)NCCCC#Cc1cnc(Nc2ccc(C#N)cc2)nc1NC1CC1)N(C)C(=O)/C=C/CN(C)C` in the assay.
Result: inactive

Ask: Another compound: CN1C(=O)N(C)C2Nn3c(s/c(=C4\C(=O)N(CCc5ccccc5)c5ccccc54)c3=O)=NC21 (stereo not given)
Result: inactive
